Test system: P93_24
Assay overview: qHTS profiling for inhibitors of Plasmodium falciparum proliferation (AID 504749); also: nearly all actives have a fitted effect of over 60% in size
Experimental setup: P. falciparum in erythrocytes, SYBR Green DNA, 72 h; series mostly up to 28.7 µM
Records with an inconclusive call do not appear. The source made the active and inactive calls. Calls follow the shape of the dose curve; as a rule, active = well fitted inhibition curve with a large enough effect; inconclusive = small, poorly fitted or top-dose-only effect; inactive = flat fitted curve, though single readings scatter.
Outcomes: active, inactive

Structure string: C(=C/c1ccccc1)/CN1CCN(C(c2ccccc2)c2ccccc2)CC1
Group: inactive
//
Structure string: O=C(O)[C@@H](S)[C@H](S)C(=O)O
Group: active
//
Structure string: NS(=O)(=O)c1cc2c(cc1Cl)N[C@H](Cc1ccccc1)NS2(=O)=O
Group: inactive
//
Structure string: CO/N=C(\C(=O)N[C@@H]1C(=O)N2C(C(=O)[O-])=C(C[N+]3(C)CCCC3)CS[C@@H]12)c1csc(N)n1
Group: inactive
//
Structure string: Cc1c(C(=O)O)c(O)cc2c1C(=O)c1c(O)c([C@H]3O[C@H](CO)[C@@H](O)[C@H](O)[C@H]3O)c(O)c(O)c1C2=O
Group: inactive
//
Structure string: Cc1cn([C@H]2C[C@H](N=[N+]=[N-])[C@H](CO)O2)c(=O)[nH]c1=O
Group: inactive

====

Target under test: Glucocorticoid receptor (Homo sapiens) (UniProt P04150)
Sequence (P04150 whole entry, looked up): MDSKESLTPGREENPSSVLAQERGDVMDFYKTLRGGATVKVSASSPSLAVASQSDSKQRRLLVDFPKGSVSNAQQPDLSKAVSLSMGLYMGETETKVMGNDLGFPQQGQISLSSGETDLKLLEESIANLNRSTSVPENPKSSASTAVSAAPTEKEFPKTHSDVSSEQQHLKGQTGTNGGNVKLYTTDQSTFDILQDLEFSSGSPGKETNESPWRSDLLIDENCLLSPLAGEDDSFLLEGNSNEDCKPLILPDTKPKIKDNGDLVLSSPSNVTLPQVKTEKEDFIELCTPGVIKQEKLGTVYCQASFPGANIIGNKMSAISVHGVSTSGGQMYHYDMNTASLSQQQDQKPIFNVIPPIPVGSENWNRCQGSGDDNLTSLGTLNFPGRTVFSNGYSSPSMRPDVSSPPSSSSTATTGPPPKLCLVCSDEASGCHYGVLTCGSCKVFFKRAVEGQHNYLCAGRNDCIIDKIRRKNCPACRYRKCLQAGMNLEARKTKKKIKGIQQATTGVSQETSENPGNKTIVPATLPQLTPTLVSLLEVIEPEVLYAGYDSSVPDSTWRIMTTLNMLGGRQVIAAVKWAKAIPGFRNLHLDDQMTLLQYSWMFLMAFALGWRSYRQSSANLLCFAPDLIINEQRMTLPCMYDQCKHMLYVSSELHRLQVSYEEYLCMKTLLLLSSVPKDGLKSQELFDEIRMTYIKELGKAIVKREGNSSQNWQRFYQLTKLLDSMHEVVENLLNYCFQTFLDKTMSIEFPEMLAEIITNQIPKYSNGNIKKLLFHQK
Assay overview: GR-GFP Redistribution (AID 450); also: potency is read from the fitted curve at half-maximal effect
Experimental setup: U2OS GR-GFP nuclear translocation, laser cytometry, 2 h
Activity calls are given as the source filed them.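 The calls were made as follows: active = compounds whose dose series gives a full or clear partial fitted curve of increased nuclear translocation; inconclusive = weak partial curve or effect only at the top dose; inactive = no dose-dependent translocation response.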
Overview of recorded Potency for various compounds

Compound: S=C1SCN(C2CCCCCCCCCCC2)CN1C1CCCCCCCCCCC1
Potency: > 46 µM (inactive)

Compound: CCc1ccc2c(c1)N(C[C@H](C)CN(C)C)c1ccccc1S2
Potency: > 46 µM (inactive)

Compound: O=C1CN2CCN(CC2)CC(=O)Nc2ccc(cc2)S(=O)(=O)c2ccc(cc2)NC(=O)CN2CCN(CC2)CC(=O)Nc2ccc(cc2)S(=O)(=O)c2ccc(cc2)N1
Potency: > 46 µM (inactive)

Compound: COc1nc(Cl)nc(Cl)c1Cl (tested in a mixture with another compound)
Potency: > 46 µM (inactive)

Compound: CC1(C)CCC(NC(=O)[C@H](N)CCC(=O)O)CC1
Potency: > 46 µM (inactive)

Compound: O=C(c1ccc([N+](=O)[O-])cc1)[C@@H](Br)[C@@H](Br)c1ccnc2ccccc12
Potency: > 46 µM (inactive)

Compound: CC(C)(C)c1ccc(O)c(CN(Cc2cc(C(C)(C)C)ccc2O)c2ccccc2)c1
Potency: > 46 µM (inactive)

Compound: CC(C)(C)C(=O)[C@H]([C@@H](c1ccccc1)N1CCOCC1)N1CCOCC1
Potency: > 46 µM (inactive)

Compound: Oc1c(CN2CCOCC2)ccc(CN2CCOCC2)c1O
Potency: > 46 µM (inactive)

Compound: Cc1ccc([C@@]2(C)CC/C(=N/N=C3\CC[C@](C)(c4ccc(C)c(C)c4)c4cc(C)c(C)cc43)c3cc(C)c(C)cc32)cc1C
Potency: > 46 µM (inactive)

Compound: COc1cc(NCCC(=O)O)c2ncccc2c1
Potency: > 46 µM (inactive)

Compound: C=C1CC[C@H](O)C/C1=C/C=C1\CCC[C@]2(C)[C@H]1CC[C@H]2[C@@H](C)CCCC(C)C
Potency: > 20.6 µM (inactive)

Compound: COC(=O)[C@@H]1[C@@H]2C[C@H]3c4[nH]c5ccccc5c4CCN3C[C@@H]2CC[C@@H]1OS(=O)(=O)O
Potency: > 46 µM (inactive)

Compound: CN(C)c1ccc(-c2cc(NCc3ccccc3)ncn2)cc1
Potency: > 46 µM (inactive)

Compound: [N-]=[N+]=NC[C@@H]1O[C@@H](n2cnc3c(N)ncnc32)[C@@H]2O[C@@H]21
Potency: > 46 µM (inactive)

Compound: CCCS(=O)(=O)O
Potency: > 46 µM (inactive)

Compound: O=c1[nH]c(=S)c2[nH]c(=O)n(-c3ccccc3)c2[nH]1
Potency: > 46 µM (inactive)

Compound: O=C(O)C(=Cc1ccnc2ccccc12)C(=O)O
Potency: > 46 µM (inactive)

Compound: OC[C@@H]1O[C@H](O)[C@@H](Cl)[C@H](O)[C@@H]1O
Potency: > 46 µM (inactive)

Compound: Cn1cnc([N+](=O)[O-])c1Sc1nc(N)nc2c1ncn2[C@H]1C[C@H](O)[C@@H](CO)O1
Potency: > 46 µM (inactive)
